MEASURED_TARGET: T1, human MSLN full-length protein (NCBI: AAH09272.1) expressed on HEK293T-hMSLN-B8 cells (human, UniProt Q13421 296-598)
T1 construct: Whole encoded precursor
T1 sequence (Q13421 other isoform, or with tags, fused parts or gaps limits assumed): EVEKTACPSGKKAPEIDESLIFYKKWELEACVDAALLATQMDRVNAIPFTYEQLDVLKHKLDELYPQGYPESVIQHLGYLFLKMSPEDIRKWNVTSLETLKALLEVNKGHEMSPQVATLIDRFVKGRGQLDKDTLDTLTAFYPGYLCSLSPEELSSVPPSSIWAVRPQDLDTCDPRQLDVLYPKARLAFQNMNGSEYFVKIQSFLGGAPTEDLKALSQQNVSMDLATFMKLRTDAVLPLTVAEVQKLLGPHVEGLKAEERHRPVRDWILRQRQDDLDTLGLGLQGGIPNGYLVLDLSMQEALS
ASSAY_OVERVIEW: FACS on HEK293T-hMSLN-B8 cells
PARAMETER_MEASURED: Maximum mean fluorescence intensity

# example entries with known answers
S009-F2.47.1 (antibody, human IgG1, kappa, V domains shown, human-murine chimeric antibody, human IgG1/kappa constant regions) VH: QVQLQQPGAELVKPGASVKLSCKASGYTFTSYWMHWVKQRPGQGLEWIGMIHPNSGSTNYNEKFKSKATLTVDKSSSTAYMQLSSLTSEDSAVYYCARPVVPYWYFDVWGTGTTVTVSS VL: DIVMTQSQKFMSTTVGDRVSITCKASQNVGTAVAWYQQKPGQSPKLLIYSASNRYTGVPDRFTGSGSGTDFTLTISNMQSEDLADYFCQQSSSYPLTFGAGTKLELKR : 98200
S009-F2.13.3 (antibody, human IgG1, kappa, V domains shown, human-murine chimeric antibody, human IgG1/kappa constant regions) VH: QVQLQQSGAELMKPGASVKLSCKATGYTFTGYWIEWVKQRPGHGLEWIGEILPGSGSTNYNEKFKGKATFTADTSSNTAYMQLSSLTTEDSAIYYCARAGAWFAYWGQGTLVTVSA VL: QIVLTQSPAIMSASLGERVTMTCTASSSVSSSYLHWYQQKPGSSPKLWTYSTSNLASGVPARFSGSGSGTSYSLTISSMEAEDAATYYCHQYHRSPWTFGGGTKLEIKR : 112000

# Maximum mean fluorescence intensity lookup, item S009-F2.21.4 (antibody, human IgG1, kappa, V domains shown, human-murine chimeric antibody, human IgG1/kappa constant regions) VH: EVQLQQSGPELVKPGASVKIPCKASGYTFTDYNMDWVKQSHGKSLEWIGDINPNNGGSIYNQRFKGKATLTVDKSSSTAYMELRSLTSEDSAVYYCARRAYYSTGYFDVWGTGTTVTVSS VL: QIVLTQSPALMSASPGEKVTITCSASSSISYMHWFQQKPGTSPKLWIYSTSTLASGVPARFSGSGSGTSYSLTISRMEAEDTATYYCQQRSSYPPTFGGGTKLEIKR 91800
